test system: CP315; assay: qHTS profiling for inhibitors of Plasmodium falciparum proliferation (AID 504749); note: nearly all actives have a fitted effect of over 60% in size; conditions: P. falciparum in erythrocytes, SYBR Green DNA, 72 h; series mostly up to 28.7 µM
Results filed as inconclusive are left out. Activity calls are given as the source filed them. Calls come from the whole dose curve; as a rule, active = well fitted inhibition curve with a large enough effect; inconclusive = small, poorly fitted or top-dose-only effect; inactive = flat fitted curve, though single readings scatter.
Labels: YES = active, NO = inactive

>  <COMPOUND>
COc1cc2c(cc1OC)C(=O)C(CC1CCN(Cc3ccccc3)CC1)C2 (centres undefined)

>  <CLASS_ASSIGNMENT>
NO

$$$$
>  <COMPOUND>
COc1cc2c(cc1OC)C(C(C(=O)N(CCc1ccc(OC)c(OC)c1OC)CCc1ccc(OC)c(OC)c1OC)c1ccccc1)=NCC2 (centres undefined)

>  <CLASS_ASSIGNMENT>
YES

$$$$
>  <COMPOUND>
Cc1cc(O)c(C(C)C)cc1Cl

>  <CLASS_ASSIGNMENT>
NO

$$$$
>  <COMPOUND>
CC(C)(C)CC(C)(C)c1ccc(O)c(Cc2ccc(Cl)cc2Cl)c1

>  <CLASS_ASSIGNMENT>
YES

$$$$
>  <COMPOUND>
CCCCOc1ccc(C(=O)CCN2CCCCC2)cc1

>  <CLASS_ASSIGNMENT>
NO

$$$$
>  <COMPOUND>
CCCCCCCCCCOCC(O)CN (centres undefined)

>  <CLASS_ASSIGNMENT>
NO

$$$$
>  <COMPOUND>
CCCCCCCCCCCCCCCCOP(=O)([O-])OCC[N+](C)(C)C

>  <CLASS_ASSIGNMENT>
NO

$$$$
>  <COMPOUND>
CCOC(=O)/C=C(C)/C=C/C=C(C)/C=C/c1c(C)cc(OC)c(C)c1C

>  <CLASS_ASSIGNMENT>
NO

$$$$
>  <COMPOUND>
CN(C)CCCOc1nn(Cc2ccccc2)c2ccccc12

>  <CLASS_ASSIGNMENT>
NO

$$$$
>  <COMPOUND>
CN(C)CC/C=C1\c2ccccc2Sc2ccc(Cl)cc21

>  <CLASS_ASSIGNMENT>
NO

$$$$
>  <COMPOUND>
CCN1CCN(c2cc3c(cc2F)c(=O)c(C(=O)O)cn3C2CC2)CC1

>  <CLASS_ASSIGNMENT>
NO

$$$$
>  <COMPOUND>
CC(C)NC[C@@H](O)COc1cccc2ccccc12

>  <CLASS_ASSIGNMENT>
NO

$$$$
>  <COMPOUND>
Oc1c(I)cc(Cl)c2cccnc12

>  <CLASS_ASSIGNMENT>
NO

$$$$
>  <COMPOUND>
CC(=O)OCC(=O)[C@@]1(OC(C)=O)[C@@H](C)C[C@H]2[C@@H]3C[C@H](F)C4=CC(=O)C=C[C@]4(C)[C@@]3(F)[C@@H](O)C[C@@]21C

>  <CLASS_ASSIGNMENT>
NO

$$$$
>  <COMPOUND>
Cc1c(C)n(CCN(C)C)c2ccc(C(=O)OCCN(C)C)cc12

>  <CLASS_ASSIGNMENT>
NO

$$$$
>  <COMPOUND>
CN1CCC[C@@H]1c1cccnc1

>  <CLASS_ASSIGNMENT>
NO

$$$$
>  <COMPOUND>
CN1C2CCC1CC(OC(=O)c1c[nH]c3ccccc13)C2 (centres undefined)

>  <CLASS_ASSIGNMENT>
NO

$$$$
>  <COMPOUND>
Cc1ccc(O)c2ncccc12

>  <CLASS_ASSIGNMENT>
NO

$$$$
>  <COMPOUND>
CCCCOc1ccc(OCCCN2CCOCC2)cc1

>  <CLASS_ASSIGNMENT>
NO

$$$$
>  <COMPOUND>
CC1(C)CCC(NC(=O)[C@@H](N)CCC(=O)O)CC1

>  <CLASS_ASSIGNMENT>
NO

$$$$
>  <COMPOUND>
CCCn1c(=O)[nH]c(=O)c2[nH]cnc21

>  <CLASS_ASSIGNMENT>
NO

$$$$
>  <COMPOUND>
NC(CS)C(=O)O (centres undefined)

>  <CLASS_ASSIGNMENT>
NO

$$$$
>  <COMPOUND>
CC(=O)Oc1ccc(C(=C2CCCCC2)c2ccc(OC(C)=O)cc2)cc1

>  <CLASS_ASSIGNMENT>
NO

$$$$
>  <COMPOUND>
CCCCCCCCCCCCCCCC[N+](C)(C)CCN(Cc1ccc(OC)cc1)c1ncccn1

>  <CLASS_ASSIGNMENT>
NO

$$$$
